# target_desc: T1, Aβ1-40 peptide
# T1 construct: synthetic peptide, not biotinylated; also called 1-40 (WT); beta amyloid 1-40
# test_details: ELISA, nonbiotinylated peptide on plate; note: test concentration or dose not given here
The reader will find reported A450 ELISA values listed item by item below.
Unit A450 implied. Number only.

Exercise: For the binder 6G heavy chain variant 6F (R104S) (antibody, V domains shown) VH: QVQLVQSGAEVKKPGASVKVSCKASGYTFTTYAIHWVRQAPGQGLEWMGFTSPYSGVSNYNQKFKGRVTMTRDTSTSTVYMELSSLRSEDTAVYYCARFDNYDSGYVRDYWGQGTLVTVS VL: DIVMTQSPDSLAVSLGERATINCRASESVDNDRISFLNWYQQKPGQPPKLLIYAATKQGTGVPDRFSGSGSGTDFTLTISSLQAEDVAVYYCQQSKEFPWSFGGGTKVEIKR , what A450 ELISA is on record?
Solution: 2.28
